Sourced from PubChem BioAssay AID1578

I'd be grateful if you could share measured inhibition for these entries.
assay: NOD1 signaling inhibitors, primary screen, cell-based, luminescence, uHTS (AID 1578); conditions: NOD1-driven NF-kB luciferase reporter cells, at 4 µM, stronger effect = higher value;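 also: HEK-293T reporter cells stimulated with the NOD1 agonist gamma-tri-DAP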
Screen size: about 290,000 compounds; about 3,000 (1%) were called active. The entries come from a sample that favours actives as a whole.
Provide the reading as a plain figure in %.

Enquiry: Could you please provide reported inhibition for Cc1nc(SCC(=O)NCc2ccco2)c2oc3ccccc3c2n1 ? Thanks!
Return: -2.6

Enquiry: Dear colleague, please send me the reported inhibition for C[C@@H](O)C1NC(=O)[C@H](CCCCN)NC(=O)c2cc([N+](=O)[O-])cc(I)c2NCCC[C@@H](C(N)=O)NC1=O (some centres not stated) when you can.
Return: -16

Enquiry: Give reported inhibition value for CCn1c(SCC(=O)N2CCCc3ccccc32)nc2ccccc2c1=O
Return: -37.5

Enquiry: Name the recorded inhibition of the item N#CC(C#N)=c1ccc2c(c1)N1C3=C(CCCC3)CC3CCCCC31N=2 (configuration not stated) in your answer.
Return: 7

Enquiry: Specify reported inhibition for the compound shown: O=C(Nc1nc2ccc(F)cc2s1)c1ccccn1
Return: 107

Enquiry: Consider the compound Cc1ccc2nc(NC(=O)c3ccccc3F)sc2c1 and give its recorded inhibition.
Return: -69.7

Enquiry: Respond only with inhibition recorded for Fc1ccc2nc(Nc3nc4c(F)cc(F)cc4s3)sc2c1
Return: 2.7

Enquiry: Give a short answer stating reported inhibition for Cc1ccc2nc(NC(=O)c3ccccn3)sc2c1 .
Return: 109

Enquiry: Provide only the value of recorded inhibition for CCN(CC)CCNC(=O)c1cn(CC)c2ccc(S(=O)(=O)N(C)C)cc2c1=O
Return: -4.5

Enquiry: // fetch inhibition given entry COC(=O)c1c(-c2ccccc2)csc1N1C(=O)Nc2ccccc2N1O
Return: 37.8

Enquiry: Write down inhibition measured for item N#C/C(C(N)=O)=c1/ccc2c(c1)N1C3=C(CCCC3)CC3CCCCC31N=2 (configuration not stated)
Return: 86.2

Enquiry: Fill in reported inhibition for this entry: N#CC(C(=O)OC1CCCCC1)c1nc2ccccc2nc1N1CCCCC1 (configuration not stated)
Return: 4.5

Enquiry: Give recorded inhibition. O=C(Nc1nc2c(F)cc(F)cc2s1)c1ccco1
Return: -3.5

Enquiry: Identify inhibition associated with the compound O=C(O)c1ccc2c(=O)n3c(nc2c1)/C(=C/c1ccc(C(F)(F)F)cc1)CC3
Return: 1.9

Enquiry: Please look at this compound and report its inhibition: O=[N+]([O-])C(=c1ccc2c(c1)N1C3=C(CCCC3)CC3CCCCC31N=2)[N+](=O)[O-] (configuration not stated)
Return: 0.7

Enquiry: Fill in inhibition for record Cc1nc(SCC(=O)N2CCCc3ccccc32)c2oc3ccccc3c2n1
Return: -0.3

Enquiry: Give recorded inhibition. COC(=O)CSc1nnc(CNC(=O)c2cccs2)n1-c1cccc(C)c1
Return: -22.2

Enquiry: Give inhibition for the following compound: O=C(Nc1nc2ccc(F)cc2s1)c1cccs1
Return: -59.7

Enquiry: Tell me measured inhibition for O=C(O)c1ccc2c(=O)n3c(nc2c1)/C(=C/c1ccc(F)cc1)CC3 please.
Return: 33.3

Enquiry: Give inhibition for the following compound: O=C(NNc1nc2c(F)cc(F)cc2s1)c1ccccc1
Return: -5.8

Enquiry: For O=C(Nc1nc2c(F)cc(F)cc2s1)c1ccccn1 , write its inhibition.
Return: 70.9

Enquiry: Return inhibition for the following compound: CN1CCN(c2nc3ccccc3nc2C(C#N)C(=O)OC2CCCCC2)CC1 (configuration not stated)
Return: 11.4
